- Assay System: Prothrombin (Homo sapiens, UniProt P00734)
- Measurement Description: Inhibitory concentration against factor IIa
pIC50: −log10 of the molar value.
Outcome Measure: pIC50

{"Query Smiles": "CC(=N)N1CCC(Oc2ccc3c(c2)OCC(=O)N3Cc2ccc3ccc(C(=N)N)cc3c2)CC1", "Outcome Measure": "pIC50", "Result": "< 5.00"}

* * *

Target chain: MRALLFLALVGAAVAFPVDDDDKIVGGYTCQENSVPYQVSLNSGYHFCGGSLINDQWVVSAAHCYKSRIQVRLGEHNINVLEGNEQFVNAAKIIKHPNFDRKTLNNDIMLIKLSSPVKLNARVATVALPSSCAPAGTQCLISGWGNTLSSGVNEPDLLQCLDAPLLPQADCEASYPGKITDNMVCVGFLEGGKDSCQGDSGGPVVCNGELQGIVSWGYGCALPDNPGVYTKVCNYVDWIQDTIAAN
IC50 strictly less than 60 nM = 1. Otherwise -1.

{"Molecule": "CC(=N)N1CCC(Oc2ccc3c(c2)OCC(=O)N3Cc2cc3ccc(C(=N)N)cc3n2C)CC1", "Category Label": -1}
{"Molecule": "CC(=N)N1CCC(Oc2ccc(N(Cc3cc4ccc(C(=N)N)cc4n3C)S(C)(=O)=O)cc2)CC1", "Category Label": 1}
{"Molecule": "CC(=N)N1CCC(Oc2ccc(N(Cc3cc4cc(C(=N)N)ccc4s3)S(C)(=O)=O)cc2)CC1", "Category Label": 1}
{"Molecule": "CC(=N)N1CCC(Oc2ccc(N(Cc3ccc4ccc(C(=N)N)cc4c3)S(=O)(=O)CC(=O)O)cc2)CC1 [YM-60828]", "Category Label": -1}
{"Molecule": "CC(=N)N1CCC(Oc2ccc(N(Cc3ccc(-c4cccc(C(=N)N)c4)cc3)S(C)(=O)=O)cc2)CC1", "Category Label": -1}
{"Molecule": "CC(=N)N1CCC(Oc2ccc(N(Cc3cc4cc(C(=N)N)ccc4n3C)S(C)(=O)=O)cc2)CC1", "Category Label": -1}
{"Molecule": "CCOC(=O)CS(=O)(=O)N(Cc1cccc(-c2cccc(C(=N)N)c2)c1)c1ccc(OC2CCN(C(C)=N)CC2)cc1", "Category Label": -1}
{"Molecule": "CC(=N)N1CCC(Oc2ccc3c(c2)OCC(=O)N3Cc2ccc3ccc(C(=N)N)cc3c2)CC1", "Category Label": 1}

* * *

- Measurement Description: Half-life period in rabbits following intravenous administration at 2 mg/kg
- Assay type: ADME, organism-based, Oryctolagus cuniculus
- Design: dose 2 mg/kg, route intravenous
- Test Parameters: rabbit, in vivo

{"Query Smiles": "CC(=N)N1CCC(Oc2ccc3c(c2)OCC(=O)N3Cc2ccc3ccc(C(=N)N)cc3c2)CC1", "half-life, min": 54}

* * *

pIC50: −log10 of the molar value.
Record: pIC50 reported on UniProt:P00734.
Outcome Measure: pIC50

{"Query Smiles": "CC(=N)N1CCC(Oc2ccc(N(Cc3ccccc3-c3cccc(C(=N)N)c3)S(C)(=O)=O)cc2)CC1", "Assay System": "UniProt:P00734", "Result": "< 5.00"}
{"Query Smiles": "CC(=N)N1CCC(Oc2ccc3c(c2)OCC(=O)N3Cc2cccc(-c3cccc(C(=N)N)c3)c2)CC1", "Assay System": "UniProt:P00734", "Result": "< 5.00"}
{"Query Smiles": "CC(=N)N1CCC(Oc2ccc(N(Cc3cc(C)n(-c4cccc(C(=N)N)c4)n3)S(C)(=O)=O)cc2)CC1", "Assay System": "UniProt:P00734", "Result": "< 5.00"}
{"Query Smiles": "CC(=N)N1CCC(Oc2ccc3c(c2)OCC(=O)N3Cc2cc(-c3cccc(C(=N)N)c3)no2)CC1", "Assay System": "UniProt:P00734", "Result": "< 5.00"}
{"Query Smiles": "CC(=N)N1CCC(Oc2ccc(N(Cc3ccc4ccc(C(=N)N)cc4c3)S(C)(=O)=O)cc2)CC1", "Assay System": "UniProt:P00734", "Result": "< 5.00"}
